These data points were gathered from ChEMBL document CHEMBL1133726.

- Test system: Human immunodeficiency virus 1
- assay-explanation: Percent inhibition at 100 uM dose of HIV-1 replication using monocyte-derived macrophages infected by the HIV-1/Ba-L strain.
- Type: functional
Quick rule: inhibition at 100 µM of at least 50% means criterion met, below that means criterion not met.

COc1cc(C(=O)N2CCN(C(=O)c3cc(OC)c(OC)c(OC)c3)C(COC(=O)C(C)(C)C)C2)cc(OC)c1OC (stereo unspecified) ... criterion not met
COc1cc(C(=O)N2CCN(C(=O)c3cc(OC)c(OC)c(OC)c3)C(COC(=O)NCC(C)(C)C)C2)cc(OC)c1OC (stereo unspecified) ... criterion met
CCN(CC)C(=O)OCC1CN(C(=O)c2cc(OC)c(OC)c(OC)c2)CCN1C(=O)c1cc(OC)c(OC)c(OC)c1 (stereo unspecified) [PMS-601] ... criterion met
CCCN(CCC)C(=O)OCC1CN(C(=O)c2cc(OC)c(OC)c(OC)c2)CCN1C(=O)c1cc(OC)c(OC)c(OC)c1 (stereo unspecified) ... criterion met

Task: Has COc1cc(C(=O)N2CCN(C(=O)c3cc(OC)c(OC)c(OC)c3)C(COC(=O)NC(C)CC(C)C)C2)cc(OC)c1OC (stereo unspecified) a recorded inhibition at 100 µM greater than or equal to 50%?
Result: criterion not met

Task: Has COc1cc(C(=O)N2CCN(C(=O)c3cc(OC)c(OC)c(OC)c3)C(COC(=O)NC(C)(C)C)C2)cc(OC)c1OC (stereo unspecified) a recorded inhibition at 100 µM greater than or equal to 50%?
Result: criterion met
